protocol-summary: Selectivity index, ratio of CC50 for HEL cells to EC50 for thymidine kinase deficient Varicella-Zoster virus 07-1 infected in HEL cells
Assay type: toxicity, cell-based
test-context: human, read-out: Ratio CC50/EC50
measure-name: selectivity ratio

**Query** Need selectivity ratio of CCCCCOC(=O)[C@@H](NP1(=O)CO[C@@H](Cn2cnc3c(N)ncnc32)CO1)[C@@H](C)CC (stereo partly specified) , thanks.
**Result** 20000

====

Tested on: Human alphaherpesvirus 1
protocol-summary: Antiviral activity against Herpes simplex virus 1 KOS infected in HEL cells assessed as inhibition of virus-induced cytopathic effect measured after 2 to 3 days post-infection
Assay type: functional, organism-based
test-context: Human alphaherpesvirus 1, KOS
Each entry below lists one item and its recorded pEC50 value.
When answering, recall that pEC50 equals minus log10 of the concentration in mol/L, and write that number alone.

# example entries with known answers
{"molecule": "CCCCCOC(=O)[C@H](C)NP1(=O)CO[C@@H](Cn2cnc3c(N)ncnc32)CO1 (some centres undefined)", "pEC50": 7.70}
{"molecule": "CCCCCOC(=O)[C@H](Cc1ccccc1)NP1(=O)CO[C@@H](Cn2cnc3c(N)ncnc32)CO1 (some centres undefined)", "pEC50": 8.46}
{"molecule": "CCCCCOC(=O)CC(NP1(=O)COC(Cn2cnc3c(N)ncnc32)CO1)C(=O)OCCCCC (single isomer, unassigned)", "pEC50": 6.68}

Switching to the query record.
**Query** # lookup: pEC50 of CCCCCOC(=O)[C@H](CC(C)C)NP1(=O)CO[C@@H](Cn2cnc3c(N)ncnc32)CO1 (some centres undefined)
**Result** 8.89

====

Recorded EC50, one value per entry.
Test system: Human alphaherpesvirus 1
protocol-summary: Antiviral activity against Herpes simplex virus 1 KOS infected in HEL cells assessed as inhibition of virus-induced cytopathic effect measured after 2 to 3 days post-infection
Format: functional, organism-based
test-context: Human alphaherpesvirus 1, KOS
Form entry: value (nM) — number only.

Worked cases, EC50 given:
{"compound": "CCCCCOC(=O)CC[C@H](NP1(=O)CO[C@@H](Cn2cnc3c(N)ncnc32)CO1)C(=O)OCCCCC (some centres undefined)", "EC50 (nM)": 1.2}
{"compound": "CCCCCOC(=O)[C@@H](NP(=O)(CO[C@H](CO)Cn1cnc2c(N)ncnc21)N[C@H](C(=O)OCCCCC)C(C)C)C(C)C", "EC50 (nM)": 2.3}
{"compound": "CCCCCOC(=O)[C@@H](NP1(=O)CO[C@@H](Cn2cnc3c(N)ncnc32)CO1)[C@@H](C)CC (some centres undefined)", "EC50 (nM)": 2}

Kindly review the next compound as well.
**Query** Query EC50 on Human alphaherpesvirus 1 for CCCCCOC(=O)[C@H](CCSC)NP1(=O)CO[C@@H](Cn2cnc3c(N)ncnc32)CO1 (some centres undefined)
**Result** 8.9

====

System: Human alphaherpesvirus 2
protocol-summary: Antiviral activity against Herpes simplex virus 2 G infected in HEL cells assessed as inhibition of virus-induced cytopathic effect measured after 2 to 3 days post-infection
Assay type: functional, organism-based
test-context: Human alphaherpesvirus 2, strain G
Kindly apply the following: true (1) if EC50 is less than 3 nM, false (0) in every other case.

{"compound": "CCCCCOC(=O)[C@H](Cc1ccccc1)NP1(=O)CO[C@@H](Cn2cnc3c(N)ncnc32)CO1 (stereo partly drawn)", "class-name": "true (1)"}
{"compound": "CCCCCOC(=O)[C@@H](NP1(=O)CO[C@@H](Cn2cnc3c(N)ncnc32)CO1)C(C)C (stereo partly drawn)", "class-name": "false (0)"}
{"compound": "CCCCCOC(=O)[C@@H](NP(=O)(CO[C@H](CO)Cn1cnc2c(N)ncnc21)N[C@H](C(=O)OCCCCC)C(C)C)C(C)C", "class-name": "true (1)"}

**Query** Is 3 nM strictly greater than the compound's reported EC50? compound: CCCCCOC(=O)C[C@H](NP1(=O)CO[C@@H](Cn2cnc3c(N)ncnc32)CO1)C(=O)OCCCCC (stereo partly drawn)
**Result** true (1)

**Query** Strictly below 3 nM: is that where EC50 of CCCCCOC(=O)CC[C@H](NP1(=O)CO[C@@H](Cn2cnc3c(N)ncnc32)CO1)C(=O)OCCCCC (stereo partly drawn) sits?
**Result** true (1)

**Query** Please determine if CCCCCOC(=O)[C@@H](NP1(=O)CO[C@@H](Cn2cnc3c(N)ncnc32)CO1)[C@@H](C)CC (stereo partly drawn) is below 3 nM in terms of EC50.
**Result** true (1)

**Query** Does O=c1[nH]c(=O)n([C@H]2C[C@H](O)[C@@H](CO)O2)cc1/C=C/Br have EC50 strictly under 3 nM?
**Result** false (0)

**Query** Identify whether the compound Nc1nc2c(ncn2COC(CO)CO)c(=O)[nH]1 records EC50 below 3 nM.
**Result** false (0)
